# PROCEDURE TEXT: protein stability index of a GFP-peptide fusion (GPS, HEK-293T) (PSI 1-6); higher = more stable;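 also: 24-mer peptide tiles fused after GFP, lentivirally expressed, FACS-sorted into six equal bins by GFP/DsRed ratio, decoded by Illumina sequencing, PSI is the read-weighted mean bin number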
# MEASUREMENT PARAMETERS: treatment: MLN4924 1 uM, 8 h; c terminus: a fixed tail appended
Outcome: Condition met for protein stability index of at least 3; Condition not met for anything lower.

Completed entries (count: 3):
- SEQ TEXT: "MSRSGDRTSTFDPSHSDNLLHGLN [KLHL14]"
  LABEL VALUE: "Condition met"
- SEQ TEXT: "RHSFRKHLYLLRGLPGSGKTTLAR [N4BP2L1]"
  LABEL VALUE: "Condition not met"
- SEQ TEXT: "GLETGDWGGAPKEGSIWRGAQMEK [ZSWIM9]"
  LABEL VALUE: "Condition met"

Record EKDQEQVVMNLDSRLLIFPLYICC [GMCL1] ; criterion: protein stability index no lower than 3. Met?
Condition not met

Answer whether protein stability index of DNSTMGYMMAKKHLEINPDHPIVE [HSP90AB1] is greater than or equal to 3.
Condition met

###

# PROCEDURE TEXT: protein stability index of a GFP-peptide fusion (GPS, HEK-293T) (PSI 1-6); higher = more stable
# MEASUREMENT PARAMETERS: treatment: MLN4924 1 uM, 8 h; c terminus: a fixed tail appended
Documented protein stability index across a set of sequences

Use these answered entries as a reference point.
- SEQ TEXT: "KVHRARKTMPKSVVGLHAASKDPR [EHMT1]"
  MEASURE NAME: "protein stability index"
  VAL: 4.08
- SEQ TEXT: "SQDLLPPPNPYPLPQEHSQIYHCT [TBX5]"
  MEASURE NAME: "protein stability index"
  VAL: 4.11
- SEQ TEXT: "WEYMHSPSENSKEAEILEVLRHPR [CPOX]"
  MEASURE NAME: "protein stability index"
  VAL: 4.07

Consider the record given below.
Per the records, this sequence ( PLNCAPCPRRSEPVVQCQYPSGAE [IRX6] ) has protein stability index equal to 3.94

###

# PROCEDURE TEXT: protein stability index of a GFP-peptide fusion (GPS, HEK-293T) (PSI 1-6); higher = more stable
# MEASUREMENT PARAMETERS: treatment: DMSO; c terminus: a fixed tail appended
Form field: protein stability index (one value per entry).

- SEQ TEXT: "EGAVKMGMPSSLAHRIAAQTLLGT [PYCR3]"
  protein stability index: 3.08
- SEQ TEXT: "IQECVPEDLELKKKIFAQLDSIID [CRYL1]"
  protein stability index: 3.07
- SEQ TEXT: "NGVNVLDEPYEKVVDRIQSSGKNV [PDZK1]"
  protein stability index: 5.03
- SEQ TEXT: "SGNMLGRHFFTSWASCLQYDFDTQ [WDFY1]"
  protein stability index: 2.47
- SEQ TEXT: "REFSFTLKDDIYIRYQSFNNQSDL [PRIM1]"
  protein stability index: 2.26
- SEQ TEXT: "ALGAMWKLHKSQLSQALNGLSDRA [TRIM9]"
  protein stability index: 2.21
- SEQ TEXT: "HEEQLQRLKLLKDREVDAATSATS [FBF1]"
  protein stability index: 5.18
- SEQ TEXT: "AYAHPQQKVAVYRALQAALAESGG [TRADD]"
  protein stability index: 2.43
- SEQ TEXT: "CYNCEEEAMYHCCWNTSYCSIKCQ [ZMYND11]"
  protein stability index: 2.61
- SEQ TEXT: "RGPRMCRFIRERDRAVNDYPSLYY [CDC25B]"
  protein stability index: 2.17

For EVLSLGVQVPEAWEELLTMKVEAK [ZSCAN9] the sequence record lists protein stability index as 3.53

Query AQDLTEAEGWHFFCFQGEATRKLA [SAT2] yields protein stability index of 2.94

response.value for PFNGDCRITKDNRRHCQACRLKRC [VDR] (field: protein stability index) = 3.19

Entry TTHFQSIPDAFWWAVVTMTTVGYG [KCNA4] — recorded protein stability index = 3.05

According to the records, this sequence LCDVTLMPGDTDDAFPVHRVMMAS [KLHL13] displays protein stability index of 3.03
